quantityName: CH4 permeability (Barrer)

Below: 5 compounds and their reported CH4 permeability.
compound | unitAnnotation | CH4 permeability
*/C(C)=C(/*)[Si](C)(C)C (repeat unit) | Barrer | 15000
*Oc1cccc(C(C)(C)c2ccc(Oc3ccc(S(=O)(=O)c4ccc(*)cc4)cc3)cc2)c1 (repeat unit) | Barrer | 0.052
*Oc1ccc(Oc2cccc(*)c2C#N)c(-c2cccc(C)c2)c1 (repeat unit) | Barrer | 0.05
*c1c(C)cc(-c2cc(C)c(N3C(=O)c4cc5c(cc4C3=O)C3(CC(C)(C)c4cc6c(cc43)C(=O)N(*)C6=O)CC5(C)C)c3ccccc23)c2ccccc12 (repeat unit) | Barrer | 359
*Oc1ccc(C(c2ccc(Oc3ccc(S(=O)(=O)c4ccc(*)cc4)cc3)cc2)c2ccccc2C(=O)O)cc1 (repeat unit) | Barrer | 0.0395

[P] *c1ccc(C(c2ccc(-c3nnc(*)n3-c3ccc(O)cc3)cc2)(C(F)(F)F)C(F)(F)F)cc1 (repeat unit)
[Q] *c1ccc2c(-c3c(O)ccc4cc(N5C(=O)c6ccc(C(=O)c7ccc8c(c7)C(=O)N(*)C8=O)cc6C5=O)ccc34)c(O)ccc2c1 (repeat unit)
I'm curious whether P or Q has the smaller CH4 permeability number. Which is it? Pick one; state its label.
Q
(Q: 0.06 Barrer, P: 6.69 Barrer)
